tested on: UO-31 renal; assay: NCI-60 one-dose screen, 48 h (100 = growth as untreated, 0 = no growth, -100 = all killed); settings: 10 µM unless noted
Compounds without any hit were thinned out: in the full panel of roughly 83,000, 20% have a hit.
The reader will find reported growth values listed item by item below.
Numeric answer only, unit % assumed.

Please review the entries below; each comes with its answer.
Cc1c(Cl)cccc1N=C=S ... 81.1
CCCCCCCCCCC(=O)CCCCCCCCCC ... 85.8
Oc1cc(O)c2c(c1)O[C@H](c1ccc(O)c(O)c1)[C@@H](O)C2 ... 89.5
Oc1cc2ccccc2c(-c2c(O)c(O)cc3ccccc23)c1O ... 13.7
O=C(O)Cc1cccc2ccccc12 ... 93.6

Indicate its recorded growth; the compound in question is CCOC(=O)CNC
107

Check the records and state growth for O=c1cc(Cl)nc2ccccn12
84

Check the records and state growth for CCN(C(C)=O)c1ccc([N+](=O)[O-])cc1
89.7

Please report growth for the following compound: O=C(c1ccccc1O)N1CCCC1
91.9

Please list growth recorded for the compound O=C1Nc2ccccc2/C1=C\c1ccccc1O
51.3

Report growth, nothing else, for this compound: CCC(C)C1CCC(O)CC1 (centres undefined)
90.7

Indicate the recorded growth value for this compound: Clc1ccc(/C=C/c2ccccn2)cc1
78.1

Answer with reported growth of CCCCn1cnc2c(=O)[nH]cnc21
94.7

Read off the recorded growth for NC(CSSCC(N)C(=O)O)C(=O)O (centres undefined)
13.9
